Just for reference, PubChem BioAssay (NCI) is where these values come from.

- Test system: NCI-H226 lung
- assay: NCI tumour cell line growth inhibition, 48 h
assayEndpoint: TGI

Completed entries (count: 10):
>>> result("COCCOC(C)C(/C=N/NC(N)=S)=N/NC(N)=S (centres undefined)")
"> 100 µM"
>>> result("COC(=O)c1c2c(c(C)[n+]([O-])c1C)C(=O)C(NCc1ccc(F)c(Cl)c1)=CC2=O")
"9.32 µM"
>>> result("C=CC1=C(C)C2=NC1=CC1=NC(=C(CC)/C1=C/O)C=C1C=C3C(=O)C(C(=O)OC)C(=C4NC(=C2)C(C)C4CCC(=O)OC/C=C(\\C)CCCC(C)CCCC(C)CCCC(C)C)C3=N1 (centres undefined) (tested in a mixture with another compound)")
"> 100 µM"
>>> result("C[n+]1c2ccccc2c(NC(CCC(N)=O)C(=O)O)c2ccccc21 (centres undefined)")
"> 100 µM"
>>> result("CCCCCCCCCCCCCCCCCC(=O)NCCCNCCCNC(=O)CCCCCCCCCCCCCCCCC")
"> 100 µM"
>>> result("N/C(=N\\C(=S)N1CCCCC1)N1CCCCC1")
"> 100 µM"
>>> result("O=C(C#Cc1c[nH]c(=O)[nH]c1=O)c1ccccc1")
"63.9 µM"
>>> result("Nc1nc(N)c(-c2ccccc2)c(C(=O)Nc2ccc(Cl)c(Cl)c2)n1")
"> 100 µM"
>>> result("O=C=Nc1ccc(Cc2ccc(N=C=O)cc2)cc1 (tested in a mixture with another compound)")
"> 25 µg/mL"
>>> result("COc1cc2cc(C(=O)N3CC(COS(C)(=O)=O)c4c3cc([N+](=O)[O-])c3ccccc43)[nH]c2c(OC)c1OC (centres undefined)")
"> 100 µM"

Report TGI for every entry below.
1. Nc1ncnc2c1ncn2CC(OCP(=O)(O)O)Oc1ccccc1 (centres undefined)
2. C=C(CO)CC(O)c1ccccc1 (centres undefined)
3. NC(=O)c1c(OCc2c(F)cc(Br)cc2F)nsc1NC(=O)NCCCCN1CCCC1
4. COc1ccc(-c2c(N)[n+]([O-])c3cc(C)c(C)cc3[n+]2[O-])cc1OC
5. O=C(O)/C(=C\c1ccccc1)Cc1ccccc1

["> 100 µM", "> 100 µM", "> 10 µM", "> 100 µM", "> 100 µM"]

---

- Test system: SW-620 colon
- assay: NCI tumour cell line growth inhibition, 48 h; in the data active = GI50 below about 0.43 µM; inactive = the rest
Hi! Could you answer with just one of these? true (active), false (inactive)

// below: answered molecules
>>> label("C#C[C@]1(O)CC[C@H]2[C@@H]3CC=C4c5nc(Nc6ccc(OC)cc6OC)sc5CC[C@]4(C)[C@H]3CC[C@@]21C")
"false"
>>> label("CS(=O)(=O)c1ccc(C(F)(F)F)cc1NC(=O)Nc1cnc(Oc2ccc(-c3cc(Cl)cnc3N)cc2)nc1")
"false"
>>> label("Nc1ccc(-c2ccc(-c3nc4ccccc4[nH]3)cc2)cc1")
"true"

Consider the additional molecule presented here.
Could you kindly confirm the outcome this assay logged for CCOC(=O)c1c(C)c2c(n1C)CSc1cc(S(=O)(=O)c3ccccc3)c(=O)[nH]c1-2 ? false

---

- Tested on: MDA-MB-435
- assay: NCI tumour cell line growth inhibition, 48 h
assayEndpoint: TGI

Completed entries (count: 2):
>>> result("CC(=O)OCCn1c(Cc2ccc([N+](=O)[O-])cc2)nn(C(C)=O)c1=O")
"> 100 µM"
>>> result("CCOC(=O)c1sc2nc(SC)nc(Nc3ccc(OC)c(OC)c3)c2c1N")
"> 100 µM"

Report TGI for every entry below.
1. CS(=O)(=O)C(=Cc1ccccc1Cl)S(C)(=O)=O
2. O=C=Nc1ccc(Cc2ccc(N=C=O)cc2)cc1 (tested in a mixture with another compound)
3. CN1N=C(c2ccncc2)OC1c1ccc(Cl)c(Cl)c1 (stereo not given)

1. > 100 µM
2. > 25 µg/mL
3. > 100 µM
